system: ACHN renal; test: NCI-60 one-dose screen, 48 h; details: 10 µM unless noted
This is part of a sample that, as a whole, favours compounds with a hit. Of some 83,000 tested, about 20% had one in any assay. Activity calls are given as the source filed them. Rule for the calls: active = growth percent below 10; inactive = the rest.
Outcomes: yes (active), no (inactive)

# CHEM SMILES, CATEGORY
records = [
    ("CCCCCCCCc1ccc(C(=O)Nc2ccc(C)c(OP(=O)(O)O)c2)cc1", "no"),
    ("Cc1ccccc1Nc1nnc(-c2c[nH]c3ccccc23)o1", "no"),
    ("C[C@@H](Nc1c(C#N)cnc2ccc(-c3cnc4[nH]ncc4c3)cc12)c1ccccc1", "yes"),
    ("Cc1ccc(Nc2nnc(-c3c[nH]c4ccccc34)o2)c(C)c1", "no"),
    ("COc1ccccc1Nc1nnc(-c2c[nH]c3ccccc23)o1", "no"),
    ("O=C(Cc1c(-c2ccccc2[N+](=O)[O-])n(-c2ncnc3c2c(-c2ccccc2)c(-c2ccccc2)n3Cc2ccccc2)[nH]c1=O)c1ccc(Cl)c(Cl)c1", "no"),
    ("Cc1cccc(NCC(=O)N2CCN(c3ncnc4c3cnn4-c3ccccc3)CC2)c1", "no"),
    ("Nc1cc2ccccc2c(=O)n1NC(=O)c1ccc(Br)cc1", "no"),
    ("CCC(=O)c1cc(C(=O)OC)c2ccc3c4ccccc4ccc3n12", "yes"),
    ("COc1ccc(-c2nc3ccccc3n2CC(=O)N=Nc2c(O)[nH]c3ccc(OC)cc23)cc1", "no"),
]

# credit: PubChem BioAssay (NCI)
